- Assay summary: blockers of RIG-like receptor reporter activation – cell-based, Sendai virus stimulus, luciferase, 10K MLSCN set, TLR/RLR signaling modifier project, primary screen (AID 602276);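 further: firefly luciferase from ISG56 promoter only with Renilla not read in this screen; 0% = Sendai virus plus DMSO and 100% = medium plus DMSO without virus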
- Cond: HEK293 RL24 IRF3 luciferase reporter, at 10 µM, stronger effect = higher value
Please provide measured inhibition for the entries that follow.
State the answer as a number, implicitly in %.

Prompt: inhibition lookup needed for CC(NC(=O)OCc1ccccc1)C(=O)N1CC(O)CC1C(=O)O (stereo not given) , thanks.
Completion: 16.9

Prompt: Thanks! And CC(C)OP(=O)(c1ccc(N(C)C)cc1)C(O)c1ccccc1F (stereo not given) ?
Completion: 11.8

Prompt: Thanks! And CN(CC(O)COCc1cccs1)C1CCCCC1 (stereo not given) ?
Completion: 11.7

Prompt: Thanks! And CN(C)CCOC(C)(c1ccccc1)c1ccccn1 (stereo not given) ?
Completion: 2.29

Prompt: Thanks! And Cc1nnc(NS(=O)(=O)c2ccc(N)cc2)s1 ?
Completion: -4.22

* * *

- Assay summary: inhibitors of TNFa-induced NFkB p65 translocation, primary screen, imaging, HUVEC, MLSMR starter and 10KST1 sets (AID 438);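 further: compound added about 3h40 before a 20 min TNFalpha stimulation; signal is the nuclear over cytoplasmic p65 intensity ratio per well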
- Cond: HUVEC TNFa-induced p65 nuclear translocation; at 2 µM, stronger effect = higher value, 0% TNFa-plus-vehicle, 100% no-TNFa wells
Observed property: inhibition (%)
State the answer as a number, implicitly in %.

Prompt: inhibition lookup needed for CC1CC(C)CN(CCCNC(=O)COc2cc(=O)n(C)c3ccccc23)C1 (stereo not given) , thanks.
Completion: 3.3

Prompt: Thanks! And O=c1cc(-c2ccc(Cl)cc2)[nH][nH]1 ?
Completion: -2.4

Prompt: Thanks! And Clc1ccc(SCCCCn2ccnc2)cc1 ?
Completion: -10.4

Prompt: Thanks! And CC(C)c1ccc(S(=O)(=O)N2CCN(C(=O)c3cccc(F)c3)CC2)cc1 ?
Completion: 4.2

Prompt: Thanks! And C=C(C)Cn1c(SCC)nc2ccccc2c1=O ?
Completion: -5

Prompt: Thanks! And CC(=O)Nc1c(Cl)n(C(C)=O)c2ccccc12 ?
Completion: -1

Prompt: Thanks! And Cc1onc(-c2c(Cl)cccc2Cl)c1C(=O)NCCN1CCOCC1 ?
Completion: 5.1

Prompt: Thanks! And Brc1ccc(C2=Nn3c(nnc3-c3ccncc3)SC2)cc1 ?
Completion: 2.2

Prompt: Thanks! And COc1cccc(Oc2ccc(N)cn2)c1 ?
Completion: -4.4

Prompt: Thanks! And CCCN(CCC)CCNC(=O)C(NS(=O)(=O)c1ccc2c(c1)CCC(=O)N2)c1ccccc1 (stereo not given) ?
Completion: 0.7

Prompt: Thanks! And CCOC(=O)CSc1nc(C)c(C(=O)OCC)s1 ?
Completion: 4

Prompt: Thanks! And O=C(Cn1cccc1)N1CCN(C(c2ccccc2)c2ccccc2)CC1 ?
Completion: -8.9

Prompt: Thanks! And CC(C)NC(=O)CSc1nnc(-c2ccc(C(C)(C)C)cc2)n1C ?
Completion: -16

Prompt: Thanks! And CCOc1cc(C2C(C(=O)c3ccccc3)=C(C(=O)OC)Nc3nnnn32)ccc1O (stereo not given) ?
Completion: -7.9

Prompt: Thanks! And O=C(Nc1ccc(CN2CCCCC2)cc1)c1ccc2c(c1)OCO2 ?
Completion: -12.8

Prompt: Thanks! And CC(C)(C)N=C1NC(=NC(C)(C)C)c2ccccc21 ?
Completion: 2.3

Prompt: Thanks! And Cc1nc2sc3c(c2c(=O)o1)CCC3 ?
Completion: 2.1

Prompt: Thanks! And CCCOc1cc(C)c(S(=O)(=O)N2CCN(C)CC2)cc1C ?
Completion: 10.6

Prompt: Thanks! And CCOC(=O)Nc1sc(=S)n(C)c1C ?
Completion: -12.5

Prompt: Thanks! And O=C(CSc1nc2[nH]ncc2c(=O)n1-c1ccccc1Br)NCc1ccco1 ?
Completion: -24

Prompt: Thanks! And Cc1ccc(-c2nnc3ccc(SCC(=O)NCc4ccco4)nn23)cc1 ?
Completion: 0.7

Prompt: Thanks! And Cn1c(=O)cc(SCC(=O)N2CCOCC2)c2ccc(Cl)cc21 ?
Completion: -3.9

Prompt: Thanks! And CN1CC[n+]2cnc3ccccc3c21 ?
Completion: 1.2

Prompt: Thanks! And CCOC(=O)C1CCN(C(=O)Nc2ccc(Cl)cc2Cl)CC1 ?
Completion: 0

Prompt: Thanks! And COc1ccc(N2CCN(C(=O)CSc3nnc4n3C(C)(C)Cc3ccccc3-4)CC2)cc1 ?
Completion: 7.7

Prompt: Thanks! And Cc1ccc(C(=O)Nc2ccc3c(c2)OCO3)o1 ?
Completion: 0

Prompt: Thanks! And CCN1C(=O)NC(c2cc(Br)ccc2OC)C(C(=O)OC)=C1C (stereo not given) ?
Completion: -13.1

Prompt: Thanks! And O=C(O)CCN1C(=O)c2ccccc2C1=O ?
Completion: 5.2

Prompt: Thanks! And CCOc1ccc2nc(NC(=O)C(NS(=O)(=O)c3cccs3)C(C)C)sc2c1 (stereo not given) ?
Completion: 10

Prompt: Thanks! And O=C(Cc1cccs1)Nc1ccccc1C(=O)O ?
Completion: 2.6

Prompt: Thanks! And O=C(COC(=O)c1ccco1)NCc1cccs1 ?
Completion: -13

Prompt: Thanks! And COCCNC(=O)Cn1nc(C(F)(F)F)c(Br)c1C ?
Completion: 1.1

Prompt: Thanks! And O=C1NC(=O)C2(CCC(C(=O)O)C2)N1 (stereo not given) ?
Completion: -17.5

Prompt: Thanks! And CC(C(=O)NCCCN1CCOCC1)n1cccc1C(=O)c1ccccc1 (stereo not given) ?
Completion: 2.7

Prompt: Thanks! And O=C(COC(=O)c1cc(S(=O)(=O)N2CCOCC2)ccc1O)NCC1CCCO1 (stereo not given) ?
Completion: 9.7

Prompt: Thanks! And CCCCc1ccc(NC(=O)c2c(C)noc2C)cc1 ?
Completion: -2.5

Prompt: Thanks! And O=c1c(F)cn(C2CCCO2)c(=O)n1Cc1c(F)cccc1Cl (stereo not given) ?
Completion: -7.1

Prompt: Thanks! And COc1cccc(/C(O)=C2/C(=O)C(=O)N(CCN3CCOCC3)C2c2cccnc2)c1 (stereo not given) ?
Completion: 15

Prompt: Thanks! And CCOc1cc(C)c(Cl)cc1S(=O)(=O)N(C)C ?
Completion: -14.7

Prompt: Thanks! And COc1ccc(/C(O)=C2/C(=O)C(=O)N(Cc3cccnc3)C2c2ccncc2)cc1F (stereo not given) ?
Completion: -7.6

Prompt: Thanks! And CCc1nnc(NC(=O)CSc2nc3ccccc3s2)s1 ?
Completion: 7.1

Prompt: Thanks! And CCOC(=O)C1=C(C)NC(SC(C)=O)=NC1c1ccc(OC(C)=O)c(OC)c1 (stereo not given) ?
Completion: 0

Prompt: Thanks! And O=C1c2ccccc2NC(c2ccco2)N1O (stereo not given) ?
Completion: 3

Prompt: Thanks! And CCOC(=O)c1sc(NC(=O)CSc2nnc(-c3ccco3)n2CC)c(C(=O)OCC)c1C ?
Completion: -10.9

Prompt: Thanks! And O=C(COC(=O)c1ccc(S(=O)(=O)Nc2ccccc2)cc1)NCCN1C(=O)CSC1=O ?
Completion: -3.1

* * *

- Assay summary: reduction of polyQ htt aggregates in cells – imaging, exon1htt(103Q)mCFP cells, high-content imaging, primary screen (AID 483);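 further: compound exposure lasted 3 days before fixation; percent of the per-plate median nuclei count of sample wells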
- Cond: exon1htt(103Q)mCFP cell line, aggregate imaging, at 2 µM; measured here: cell count, toxicity
I'd appreciate it if you marked entries Y when nuclei count is lower than 90% and N when it is not.

Prompt: Is nuclei count strictly under 90% for the entry c1ccc(OCCOc2ncnc3sccc23)cc1 ?
Completion: N

Prompt: Thanks! And Cc1ccc(-c2nnn(CC(=O)NC3CC4CCC3C4)n2)cc1 (configuration not stated) ?
Completion: Y

Prompt: Thanks! And C/C(=N\O)c1ccc2c3c([nH]c2c1)CCCC3 ?
Completion: Y

Prompt: Thanks! And COCCCNC(=O)c1ccc2c(c1)OCO2 ?
Completion: N

Prompt: Thanks! And CCN1C(=O)N(CC)C2C1N(C(C)=O)C(=O)N2C(C)=O (configuration not stated) ?
Completion: N

Prompt: Thanks! And C1COC(NC(C2CC2)C2CC2)=N1 ?
Completion: N

Prompt: Thanks! And CC1(C)CC(=O)c2cc(OCC(=O)N3CCN(c4ccccc4F)CC3)ccc2O1 ?
Completion: N

* * *

- System tested: Voltage-gated potassium channel subunit beta-2 (Rattus norvegicus) (UniProt P62483)
- Sequence (P62483 whole entry, looked up): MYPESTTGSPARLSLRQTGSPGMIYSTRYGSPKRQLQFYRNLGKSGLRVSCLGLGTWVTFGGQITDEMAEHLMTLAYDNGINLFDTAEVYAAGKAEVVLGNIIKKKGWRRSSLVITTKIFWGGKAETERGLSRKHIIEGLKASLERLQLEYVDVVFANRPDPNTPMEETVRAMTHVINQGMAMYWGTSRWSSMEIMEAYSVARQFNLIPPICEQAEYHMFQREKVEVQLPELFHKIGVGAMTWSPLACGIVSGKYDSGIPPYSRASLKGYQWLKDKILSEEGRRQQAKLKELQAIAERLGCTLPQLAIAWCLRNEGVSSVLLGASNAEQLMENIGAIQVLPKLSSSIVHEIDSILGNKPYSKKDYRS
- Assay summary: inhibitors of rat Kvbeta2 reductase activity – biochemical, NADPH fluorescence, primary screen (AID 622);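 further: slope of raw intensity against log time taken from 70 to 1610 s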
- Cond: recombinant KvBeta, 4-cyanobenzaldehyde reduction, at 10 µM, stronger effect = higher value
If the reported fluorescence slope equals or exceeds -0.3, assign TRUE. If not, assign FALSE.

Prompt: Check this molecule for fluorescence slope at or above -0.3: CCCCn1cnc2c(cnn2-c2ccc(Cl)cc2)c1=O
Completion: FALSE

Prompt: Thanks! And CCCCc1cc(=O)oc2cc(C)cc(OC(C)C(=O)O)c12 (stereo unspecified) ?
Completion: TRUE

Prompt: Thanks! And COc1cc2nc(C3CCC3)n(NC(=O)C3CCCC(OC)C3)c(=O)c2cc1OC (stereo unspecified) ?
Completion: TRUE

Prompt: Thanks! And O=C(NCCC1=CCCCC1)C1CCN(S(=O)(=O)c2cccc3cccnc23)CC1 ?
Completion: FALSE

Prompt: Thanks! And Cc1noc(C)c1S(=O)(=O)NCCN1CCN(c2ccccc2)CC1 ?
Completion: FALSE
